- target or system: TbPARP (Trypanosoma brucei brucei)
- Sequence (Q0PW89 entry or part of it): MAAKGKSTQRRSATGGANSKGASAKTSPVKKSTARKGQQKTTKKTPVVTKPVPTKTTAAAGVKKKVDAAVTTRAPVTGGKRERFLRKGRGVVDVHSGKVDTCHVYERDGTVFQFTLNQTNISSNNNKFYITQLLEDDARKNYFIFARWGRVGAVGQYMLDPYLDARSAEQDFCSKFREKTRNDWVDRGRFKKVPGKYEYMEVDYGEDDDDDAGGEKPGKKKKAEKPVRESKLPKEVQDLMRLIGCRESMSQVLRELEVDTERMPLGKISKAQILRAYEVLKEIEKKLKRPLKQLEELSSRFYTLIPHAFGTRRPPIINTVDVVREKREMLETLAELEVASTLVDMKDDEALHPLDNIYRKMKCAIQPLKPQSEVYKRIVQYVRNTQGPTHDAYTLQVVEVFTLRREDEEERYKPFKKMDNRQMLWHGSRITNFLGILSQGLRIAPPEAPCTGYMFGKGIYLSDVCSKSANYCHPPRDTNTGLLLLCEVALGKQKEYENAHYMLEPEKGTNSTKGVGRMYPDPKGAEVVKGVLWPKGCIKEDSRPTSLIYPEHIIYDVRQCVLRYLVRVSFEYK
- protocol: biochemical
- condition summary: 5 nM TbPARP, 500 nM NAD+, 11 min at 25 °C; mean of three dose-response curves; read-out: TbPARP IC50
Answer each item with its documented IC50.
Give bare numbers, in nM.

> print(dat)
                              smiles.record  recorded.metric  readout.units  numeric.value
1  Nc1ncnc2c1ncn2[C@@H]1O[C@H](C(=O)N2CCN(CC(=O)Nc3cccc4c3CNC4=O)CC2)[C@@H](O)[C@H]1O             IC50             nM            6.5
2  O=C(c1cc(Cc2n[nH]c(=O)c3ccccc23)ccc1F)N1CCN(C(=O)C2CC2)CC1             IC50             nM            2.9
3     C[C@]1(c2nc3c(C(N)=O)cccc3[nH]2)CCCN1             IC50             nM             49

Now examine the next entry.
Task: Given the molecule Nc1ccc2c3c(cccc13)C(=O)NC2=O , write its reported IC50.
Output: 23

This collection of values is drawn from paper PMC4806436.
